Tested on: ACHN renal
Test: NCI tumour cell line growth inhibition, 48 h
Each item that follows carries a reported TGI.

Example entries and their recorded answers appear below.
>>> print(df.to_string())
                                   molecule  quantity  reported_result
0  C=CCN1CCC(O)(c2cc(C(=O)OCC)[nH]c2-c2cc(C)no2)C1 (centres undefined)       TGI         > 100 µM
1  COc1cc(/C=C\c2cc(OC)c(OC)c(OC)c2)cc(N/C=C\C(=O)c2cc(OC)c(OC)c(OC)c2)c1OC       TGI         > 100 µM
2  COc1ccc(N=NC(=O)NC(CC(C)C)C(=O)NC(C)C(=O)O)cc1 (centres undefined)       TGI         > 100 µM
3            Oc1ccc2ccccc2c1N=Nc1ccc(Br)cc1       TGI         > 100 µM
4  O=c1oc2c/c(=C\c3ccc([N+](=O)[O-])cc3)c(=O)c3cccc1c3-2       TGI         > 100 µM
5  CC(Oc1ccc(Cl)cc1Cl)C(=O)NN1C(=O)CSC1c1ccccc1 (centres undefined)       TGI         > 100 µM

Exam item: Any idea what its TGI is? The molecule is O=[N+]([O-])c1ccc(-c2cnc3ccccn23)cc1
Marked response: > 100 µM

Exam item: Any idea what its TGI is? The molecule is CCOC(=O)c1c(-c2ccc(OC)cc2)c(C#N)c2c(C#N)c(N)nn2c1N
Marked response: 48.5 µM

Exam item: Any idea what its TGI is? The molecule is C#Cc1nc(Nc2cc(C)[nH]n2)c2ccccc2n1
Marked response: 1.71 µM

Exam item: Any idea what its TGI is? The molecule is CC1(C)OC2C(O)C(CO)OC2(C(F)F)O1 (centres undefined)
Marked response: > 100 µM

Exam item: Any idea what its TGI is? The molecule is Cc1ccc(NC(=O)CCc2nnc(N)o2)cc1
Marked response: > 100 µM

Exam item: Any idea what its TGI is? The molecule is CCCCCCCN=C(N)c1ccc(N2CCN(c3ccc(C(N)=NCCCCCCC)cc3)CC2)cc1
Marked response: 24.8 µM

Exam item: Any idea what its TGI is? The molecule is COC(=O)C1=C(C(=O)OC)C2=S(SC3=C2CCCC3)S1 (centres undefined)
Marked response: > 100 µM

Exam item: Any idea what its TGI is? The molecule is CCOC(=O)Cc1ccc(Nc2nc3ccccc3nc2C(=O)OCC)cc1
Marked response: > 100 µM

###

Tested on: HS 578T breast
Test: NCI tumour cell line growth inhibition, 48 h
Each item that follows carries a reported GI50.

Example entries and their recorded answers appear below.
In [3]: df
Out[3]:
                                   molecule  reported_result
0  COc1ccc(-c2nsc3c2NC(=O)CC3c2cccc(OC)c2)cc1 (centres undefined)          1.34 µM
1  COC(=O)c1cc2c(s1)-c1nccc3c1c(nc1ccccc13)C2=O          28.2 µM
2             CN(C)c1ccc(N=Nc2ccccn2)c(O)c1          3.53 µM
3  CN(C)C(=S)Sc1ccc([N+](=O)[O-])cc1[N+](=O)[O-]          9.95 µM
4  CC1(C)N=C(N)N=C(N)N1c1ccc(CCCCc2ccc(Cl)c(S(=O)(=O)F)c2)c(Cl)c1          9.71 µM
5  COc1ccc(C(O)(CCC(C)C)C(CN2CCOCC2)c2ccc(Cl)cc2)cc1 (centres undefined)          15.2 µM
6  C[C@@]12CCC[C@@](C)(C(=O)O)C1CC[C@]13CC(=O)[C@](CO)(C1)[C@@H](O)CC32 (some centres undefined)         > 100 µM
7  O=[P@@]1(c2ccccc2)O[C@H](COCc2ccccc2)[C@@H](OCc2ccccc2)[C@H](OCc2ccccc2)[C@H]1NCc1ccccc1          3.43 µM

With those in mind, consider the next molecule.
Exam item: Any idea what its GI50 is? The molecule is O=C(Nc1cc(C(F)(F)F)ccc1Cl)c1cccc(NC2=C(Cl)C(=O)N(Cc3ccccc3)C2=O)c1
Marked response: 53.7 µM

###

Each item that follows carries a reported TGI.
Test system: T-47D breast
Assay: NCI tumour cell line growth inhibition, 48 h

Example entries and their recorded answers appear below.
>>> df
                                   molecule  reported_result
0    CCc1nc(N)nc(N)c1-c1ccc([N+](C)(C)C)cc1         > 100 µM
1  CCCCCCCN=C(N)c1ccc(N2CCN(c3ccc(C(N)=NCCCCCCC)cc3)CC2)cc1        > 93.4 µM
2  CC1(C)OC2C(O)C(CO)OC2(C(F)F)O1 (stereo not given)         > 100 µM
3  COc1cccc(C2c3cc4c(cc3OC(C)(N3CCCC3)C2C)OCO4)c1 (stereo not given)            64 µM
4  COc1ccc(C(O)(CCC(C)C)C(CN2CCOCC2)c2ccc(Cl)cc2)cc1 (stereo not given)          26.9 µM
5  O=c1c2ncn(C3CCCO3)c2n(-c2ccccc2)c(=S)n1-c1ccccc1 (stereo not given)         > 100 µM
6  COC1=C(Br)[C@H](O)[C@@]2(C=C1Br)CC(C(=O)NCCCOc1c(Br)cc(C(O)CNC(C)=O)cc1Br)=NO2 (stereo not given in full)          > 10 µM
7  CC1C=CN(N(C)C)C2=C1C(=O)c1cnccc1C2=O (stereo not given)          4.33 µM
8     S=c1[nH]c2c(Cl)c(Cl)c(Cl)c(Cl)c2[nH]1         > 100 µM

Exam item: API: value(readout=TGI, system=T-47D breast) for record Cc1cc(C(F)(F)F)cc(-n2nc(NS(=O)(=O)c3cc(C)c(Cl)cc3S)nc2N)n1
Marked response: > 100 µM

###

System: LXFL 529 NSCLC
Assay: NCI tumour cell line growth inhibition, 48 h
QUANTITY: TGI

>>> df
                                   molecule     measured_on  reported_result
0          CC(=O)N1CCC(=O)/C(=C/c2ccccc2)C1  LXFL 529 NSCLC          47.2 µM
1  CCOC(=O)c1ccc(N=Nc2cc(C(=O)OCC)ccc2O)cc1  LXFL 529 NSCLC         > 100 µM
2  CC(C)(C)[Si](C)(C)OC1C(=O)C[C@H]2CCCC[C@@H]12 (stereo not given in full)  LXFL 529 NSCLC         > 100 µM
3  CN(CCN(C)C(=O)CCn1cc(F)c(=O)[nH]c1=O)C(=O)CCn1cc(F)c(=O)[nH]c1=O  LXFL 529 NSCLC         > 100 µM

Exam item: API: value(readout=TGI, system=LXFL 529 NSCLC) for record CCOC(=O)C1SC(=Nc2ccccc2)N=C1C (stereo not given)
Marked response: > 100 µM

Exam item: API: value(readout=TGI, system=LXFL 529 NSCLC) for record CC(Oc1ccc(OCC2CCCCC2)cc1)C(=O)OCC(=O)c1ccc(-c2ccccc2)cc1 (stereo not given)
Marked response: > 100 µM

Exam item: API: value(readout=TGI, system=LXFL 529 NSCLC) for record Nc1ccn(C2OC(CO)C(O)C2O)c(=O)n1 (stereo not given)
Marked response: > 500 µM

Exam item: API: value(readout=TGI, system=LXFL 529 NSCLC) for record Cc1ccc(NC(=O)CCc2nnc(N)o2)cc1
Marked response: > 100 µM

###

Each item that follows carries a reported TGI.
System: TK-10 renal
Assay: NCI tumour cell line growth inhibition, 48 h

In [3]: df
Out[3]:
                                   compound  quantity  reported_result
0  C[C@H]1C(=O)O[C@@H]2CCN3CC=C(COC(=O)[C@](C)(O)[C@@]1(C)O)[C@H]23       TGI         > 100 µM
1  COC(C)(C)OCCN1CCN(CCN2C3=C(C=C(C(C)=O)C3)Sc3ccccc32)CC1       TGI          34.6 µM
2  CSc1ccsc1-c1sc(-c2cc(SC)c(-c3sc(-c4cc(SC)c(-c5sccc5SC)s4)cc3SC)s2)cc1SC       TGI         > 100 µM

Exam item: Any idea what its TGI is? The compound is C[C@@]12CCC[C@@](C)(C(=O)O)C1CC[C@]13CC(=O)[C@](CO)(C1)[C@@H](O)CC32 (some centres undefined)
Marked response: > 100 µM
